molecular target: human V1a receptor (Homo sapiens); construct: expressed in transfected cells; host or cells: HEK293 cells, transiently transfected; cell membranes; experiment: human V1a receptor binding (3H-Vasopressin SPA, HEK293 cell membranes); conditions: membranes from HEK293 cells transiently transfected with human V1a receptor, Ki by Cheng-Prussoff, read-out: pki (hV1a) (converted)
Sequence (P37288 whole entry): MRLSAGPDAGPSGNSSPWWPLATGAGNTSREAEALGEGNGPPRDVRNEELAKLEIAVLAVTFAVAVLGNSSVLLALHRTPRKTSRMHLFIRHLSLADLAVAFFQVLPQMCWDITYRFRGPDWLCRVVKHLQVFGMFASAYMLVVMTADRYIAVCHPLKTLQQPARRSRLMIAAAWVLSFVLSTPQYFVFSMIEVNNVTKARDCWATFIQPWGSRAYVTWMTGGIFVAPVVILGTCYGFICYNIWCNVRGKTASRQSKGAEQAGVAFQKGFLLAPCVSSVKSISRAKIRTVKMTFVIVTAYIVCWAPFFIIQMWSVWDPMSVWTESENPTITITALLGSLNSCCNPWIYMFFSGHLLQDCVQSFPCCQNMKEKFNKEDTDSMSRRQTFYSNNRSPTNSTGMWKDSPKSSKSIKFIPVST
assay metric: Ki (nM)

Known results for compounds:
smiles repr | system | Ki (nM)
COc1cccc(OC)c1C1CCN(C(=O)c2cc3cc(Cl)cc(CC#N)c3[nH]2)CC1 | human V1a receptor (Homo sapiens) | 19.5
Cc1c(C(=O)N2CC=C(c3ccccc3)CC2)[nH]c2c(C)cccc12 | human V1a receptor (Homo sapiens) | 96.6
N#CCc1cc(Cl)cc2cc(C(=O)N3CCC(c4cccc5[nH]c(=O)oc45)CC3)[nH]c12 | human V1a receptor (Homo sapiens) | 12.9
COc1ccccc1C1CCN(C(=O)c2cc3cc(Cl)cc(CN4CCOCC4)c3[nH]2)CC1 | human V1a receptor (Homo sapiens) | 54.3

A. COc1ccccc1C1CCN(C(=O)c2cc3cc(Cl)cc(CC#N)c3[nH]2)CC1
B. COc1cccc(OC)c1C1CCN(C(=O)c2cc3cccc(CC#N)c3[nH]2)CC1
C. O=C(c1cc2cc(Cl)cc(CN3CCOCC3)c2[nH]1)N1CCC(c2cccc3[nH]c(=O)oc23)CC1
D. COc1cccc(OC)c1C1CCN(C(=O)c2cc3cc(Cl)ccc3n2CC#N)CC1
Enquiry: // ranking: key=Ki, reverse=True Please respond by ranking the labels in the order requested.
Return: B, A, D, C
(B: 86.1 nM, A: 45.7 nM, D: 14 nM, C: 6.53 nM)
